# credit: patent US10988477B2

Would you mind telling me the reported Ki of each entry?
- Assay System: GCN2 kinase (Homo sapiens)
- Sequence (Q9P2K8 whole entry): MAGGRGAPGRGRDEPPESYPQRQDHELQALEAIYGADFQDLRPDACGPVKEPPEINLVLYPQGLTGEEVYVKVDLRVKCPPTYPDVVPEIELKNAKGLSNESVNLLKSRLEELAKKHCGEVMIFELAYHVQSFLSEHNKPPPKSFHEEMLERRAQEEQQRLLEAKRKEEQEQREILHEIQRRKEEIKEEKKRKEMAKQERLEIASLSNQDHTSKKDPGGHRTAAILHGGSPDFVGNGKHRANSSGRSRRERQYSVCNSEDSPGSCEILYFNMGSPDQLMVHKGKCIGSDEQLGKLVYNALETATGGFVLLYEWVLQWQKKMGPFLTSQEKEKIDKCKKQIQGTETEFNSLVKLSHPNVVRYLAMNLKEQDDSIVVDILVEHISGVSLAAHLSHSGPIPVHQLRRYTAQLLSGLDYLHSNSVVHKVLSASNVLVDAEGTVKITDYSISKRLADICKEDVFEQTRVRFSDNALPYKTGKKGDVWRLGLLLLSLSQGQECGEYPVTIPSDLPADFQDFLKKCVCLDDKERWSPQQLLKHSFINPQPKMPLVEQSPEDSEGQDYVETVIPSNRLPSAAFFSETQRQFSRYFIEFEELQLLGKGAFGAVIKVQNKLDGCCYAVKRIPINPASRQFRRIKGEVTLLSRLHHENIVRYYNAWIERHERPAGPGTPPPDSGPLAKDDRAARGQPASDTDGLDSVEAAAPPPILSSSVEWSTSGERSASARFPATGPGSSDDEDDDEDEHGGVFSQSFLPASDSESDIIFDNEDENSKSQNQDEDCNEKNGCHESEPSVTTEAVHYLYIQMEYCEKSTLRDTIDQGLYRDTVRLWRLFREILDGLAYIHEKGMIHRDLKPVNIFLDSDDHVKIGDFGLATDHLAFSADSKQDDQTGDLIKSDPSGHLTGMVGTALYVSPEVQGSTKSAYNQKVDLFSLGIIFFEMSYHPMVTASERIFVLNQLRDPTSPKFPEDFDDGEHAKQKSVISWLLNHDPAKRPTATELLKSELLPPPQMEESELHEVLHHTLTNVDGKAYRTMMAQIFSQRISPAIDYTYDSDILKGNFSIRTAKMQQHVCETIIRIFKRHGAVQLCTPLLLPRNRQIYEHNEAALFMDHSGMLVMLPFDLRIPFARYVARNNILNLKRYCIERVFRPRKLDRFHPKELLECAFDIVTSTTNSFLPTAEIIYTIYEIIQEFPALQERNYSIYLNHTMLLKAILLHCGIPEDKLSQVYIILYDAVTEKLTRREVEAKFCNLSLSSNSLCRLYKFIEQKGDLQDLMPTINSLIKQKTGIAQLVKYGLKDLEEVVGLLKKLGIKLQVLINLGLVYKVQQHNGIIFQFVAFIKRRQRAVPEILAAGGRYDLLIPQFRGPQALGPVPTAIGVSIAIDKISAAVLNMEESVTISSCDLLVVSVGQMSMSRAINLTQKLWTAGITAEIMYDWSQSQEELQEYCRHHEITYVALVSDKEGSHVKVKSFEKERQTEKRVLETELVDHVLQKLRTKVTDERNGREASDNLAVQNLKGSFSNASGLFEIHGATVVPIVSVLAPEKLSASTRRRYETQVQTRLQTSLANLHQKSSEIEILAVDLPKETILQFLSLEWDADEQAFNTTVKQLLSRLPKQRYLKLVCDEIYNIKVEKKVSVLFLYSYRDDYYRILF
- Assay Procedure: GCN2 enzyme inhibition assay (Transcreener ADP2 fluorescence polarization)
- Assay type: biochemical
- Test Parameters: compounds of Formula II; 280 μM ATP, 4 nM GCN2 kinase

stdin: Please indicate recorded Ki of OC[C@@H]1CN(c2cc(-c3cnc4ccc(C(F)F)nn34)ncn2)C[C@@H](C(F)(F)F)O1 [II-297] measured with GCN2 kinase (Homo sapiens).
stdout: 10 to 1000 nM

stdin: Please indicate recorded Ki of FC(F)c1ccc2ncc(-c3cc(N4CC5CC(C4)O5)ncn3)n2n1 [II-451] measured with GCN2 kinase (Homo sapiens).
stdout: 10 to 1000 nM

stdin: Please indicate recorded Ki of CC1C(CS(N)(=O)=O)CCCN1c1cc(-c2cnc3ccc(C(F)F)nn23)ncn1 (stereo not drawn) [II-424] measured with GCN2 kinase (Homo sapiens).
stdout: < 10 nM

stdin: Please indicate recorded Ki of N#CCC1CN(c2cc(-c3cnc4ccc(C(F)F)nn34)ncn2)CCO1 (single isomer, unassigned) [II-564] measured with GCN2 kinase (Homo sapiens).
stdout: 10 to 1000 nM

stdin: Please indicate recorded Ki of CC1CN(c2cc(-c3cnc4ccc(C(F)F)nn34)ncn2)C(C)C(c2cn[nH]c2)N1 (single isomer, unassigned) [II-653] measured with GCN2 kinase (Homo sapiens).
stdout: 10 to 1000 nM

Could you tell me Ki for each of these compounds? They are listed below.
1. CNS(=O)(=O)N[C@H]1CCCN(c2cc(-c3cnc4ccc(C(F)F)nn34)ncn2)C1 [II-422]
2. Cc1ccc2ncc(-c3cc(N4CCO[C@H](CNS(C)(=O)=O)C4)ncn3)n2n1 [II-328]
3. O=S(=O)(CC1CC1)N[C@H]1CCCN(c2cc(-c3cnc4ccc(C(F)F)nn34)ncn2)C1 [II-420]
4. NS(=O)(=O)NCC1CCCN(c2cc(-c3cnc4ccc(C(F)F)nn34)ncn2)C1 (single isomer, unassigned) [II-278]
5. CC1(C)CN(c2cc(-c3cnc4ccc(C(F)F)nn34)ncn2)C[C@@H](CNS(C)(=O)=O)O1 [II-403]
6. CN(C)C1CN(c2cc(-c3cnc4ccc(C(F)F)nn34)ncn2)CC(CNS(C)(=O)=O)C1(F)F (stereo not drawn) [II-259]

stdout:
10 to 1000 nM
10 to 1000 nM
10 to 1000 nM
< 10 nM
< 10 nM
< 10 nM

stdin: Please indicate recorded Ki of OCC12CC1CN(c1cc(-c3cnc4ccc(C(F)F)nn34)ncn1)C2 (stereo not drawn) [II-438] measured with GCN2 kinase (Homo sapiens).
stdout: 10 to 1000 nM
